Cited source: patent US5607931A

Tested on: liver cholesterol esters
Assay: In Vivo Assay of Hypolipidemic Agents Using the Hyperlipidemic Hamster
Details: Mesocricetus auratus, 168 h; 50 mpk, oral gavage in corn oil once daily, seven days; 0.5% cholesterol diet; percent reduction versus control; read-out: In Vivo 50 mpk % Redn. L/CE
Test readout: change in vivo at 50 mg/kg (%)
Dear colleague, please return just the value in %, with no unit written.

Please review the following examples before continuing.
>>> print(df.to_string())
                                   compound  value_measured
0  CCCCCCCCCCCCC(C)(C)C(=O)NC(CN1CCN(C)CC1)c1ccccc1 (centres unmarked)             -44
1  CCCCCCCCCCCCCCCCCC(=O)NC(CN1CCN(C)CC1)c1ccccc1 (centres unmarked)             -25
2  CCCCCCCC/C=C\CCCCCCCC(=O)NC(CN1CCCCC1)c1ccccc1 (centres unmarked)             -12

Q) Sample CCCCCCCC/C=C\CCCCCCCC(=O)NC(CN1CCC(O)CC1)c1ccccc1 (centres unmarked) — what was its change in vivo at 50 mg/kg?
A) -25

Q) Sample O=C(NC(CN1CCCCC1)c1ccccc1)C(c1ccccc1)c1ccccc1 (centres unmarked) — what was its change in vivo at 50 mg/kg?
A) 0

Q) Sample CCCCCCCCCCC(C)(C)C(=O)NC(CN1CCN(C)CC1)c1ccccc1 (centres unmarked) — what was its change in vivo at 50 mg/kg?
A) 0

Q) Sample CCCCCCCC/C=C\CCCCCCCC(=O)NC(CN1CCN(C(=O)OC(C)(C)C)CC1)c1ccccc1 (centres unmarked) — what was its change in vivo at 50 mg/kg?
A) -22

Q) Sample CCCCCCCC/C=C\CCCCCCCC(=O)NC(CN1CCN(C)CC1)c1ccccc1 (centres unmarked) — what was its change in vivo at 50 mg/kg?
A) -55

Q) Sample CCCCCCCC/C=C\CCCCCCCC(=O)NC(CN1CCC(OC)(OC)CC1)c1ccccc1 (centres unmarked) — what was its change in vivo at 50 mg/kg?
A) -18

Q) Sample CCCCCCCC/C=C\CCCCCCCC(=O)NC(CN1CCC2(CCCC2)CC1)c1ccccc1 (centres unmarked) — what was its change in vivo at 50 mg/kg?
A) 0

Q) Sample O=C1CCN(CC(NC(=O)C(c2ccccc2)c2ccccc2)c2ccccc2)CC1 (centres unmarked) — what was its change in vivo at 50 mg/kg?
A) 0

Q) Sample CCCCCCCCCCCCCC(=O)NC(CN1CCN(C)CC1)c1ccccc1 (centres unmarked) — what was its change in vivo at 50 mg/kg?
A) 0

Q) Sample CCCCCCCC/C=C\CCCCCCCC(=O)NC(CN1CCC(NC(=O)C(F)(F)F)CC1)c1ccccc1 (centres unmarked) — what was its change in vivo at 50 mg/kg?
A) 0
